Listed compounds paired with reported log10(Ki)
Target: Histamine H3 receptor (Rattus norvegicus, UniProt Q9QYN8)
Construct: from tissue; host or cells: rat cerebral cortex membranes
Sequence (Q9QYN8 whole entry): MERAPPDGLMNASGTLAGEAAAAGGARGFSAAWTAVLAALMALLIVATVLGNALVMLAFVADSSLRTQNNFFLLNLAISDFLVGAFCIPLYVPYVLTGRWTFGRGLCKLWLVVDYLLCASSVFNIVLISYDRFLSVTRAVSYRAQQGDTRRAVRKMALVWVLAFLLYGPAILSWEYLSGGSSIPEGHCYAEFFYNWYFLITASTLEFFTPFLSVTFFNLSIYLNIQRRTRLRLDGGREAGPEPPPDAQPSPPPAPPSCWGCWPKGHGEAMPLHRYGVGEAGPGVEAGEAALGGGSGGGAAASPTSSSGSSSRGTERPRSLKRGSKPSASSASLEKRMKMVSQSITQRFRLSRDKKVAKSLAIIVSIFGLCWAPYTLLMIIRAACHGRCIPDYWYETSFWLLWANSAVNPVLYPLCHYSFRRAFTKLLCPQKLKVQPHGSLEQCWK
Assay: In vitro histamine H3 receptor binding analysis, [3H]-Nα-methylhistamine, rat cortical membranes
Conditions: Ki=IC50/(1+([Ligand]/[Kd])
Please be aware that the numbers have been log10-transformed from Ki in nM.

Observe how each entry below is paired with its result.
>  <Compound>
N[C@@H](Cc1c[nH]cn1)C(=O)NCCc1c[nH]cn1

>  <log10(Ki)>
3.51

$$$$
>  <Compound>
O=C(NCCc1c[nH]cn1)[C@@H]1CC2CCCCC2N1 (stereo partly shown)

>  <log10(Ki)>
1.05

$$$$
>  <Compound>
N[C@@H](Cc1ccc(F)cc1)C(=O)NCCc1c[nH]cn1

>  <log10(Ki)>
1.93

$$$$
>  <Compound>
O=C(NCCc1c[nH]cn1)[C@@H]1Cc2ccccc2CN1

>  <log10(Ki)>
1.92

$$$$
>  <Compound>
CC(C)CCC#CCCc1c[nH]cn1

>  <log10(Ki)>
0.57

$$$$
>  <Compound>
N=C(N)NCCC[C@H](N)C(=O)NCCc1c[nH]cn1

>  <log10(Ki)>
1.80

$$$$

So, CCCCCCCC#CCCc1c[nH]cn1 ? Its log10(Ki) was 0.45

So, C(#CCCN1CCOCC1)CCc1c[nH]cn1 ? Its log10(Ki) was 3.08

So, N[C@@H](Cc1ccccc1)C(=O)NCCc1c[nH]cn1 ? Its log10(Ki) was 2.02

---

Listed compounds paired with reported Ki
Biological target: Histamine H3 receptor (Rattus norvegicus)
Construct: from tissue; host or cells: rat cerebral cortex membranes
Assay: In vitro histamine H3 receptor binding analysis, [3H]-Nα-methylhistamine, rat cortical membranes
Settings: Ki=IC50/(1+([Ligand]/[Kd])
Field: numeric (nM). Do not append units.

Observe how each entry below is paired with its result.
>  <Compound>
C(#CCCC1CCCCC1)CCc1c[nH]cn1

>  <Test Value>
2.9

$$$$
>  <Compound>
CN(CCc1c[nH]cn1)C(=O)[C@@H]1CC2CCCCC2N1 (some centres unmarked)

>  <Test Value>
45

$$$$
>  <Compound>
CC(C)(C)CCC#CCCc1c[nH]cn1

>  <Test Value>
0.8

$$$$
>  <Compound>
C(=C/CCc1c[nH]cn1)/CCc1ccccc1 [Example 42, 4-(6-Phenylhex-cis-3-enyl)imidazole]

>  <Test Value>
5.5

$$$$
>  <Compound>
C(=C\CCC1CCCCC1)/CCc1c[nH]cn1

>  <Test Value>
16

$$$$

So, Cc1c(C)c(S(=O)(=O)NC(=N)NCCC[C@H](N)C(=O)NCCc2c[nH]cn2)c(C)c2c1OC(C)(C)CC2 ? Its Ki was 14

---

Target: Histamine H3 receptor (Rattus norvegicus, UniProt Q9QYN8)
Construct: from tissue; host or cells: rat cerebral cortex membranes
Assay: In vitro histamine H3 receptor binding analysis, [3H]-Nα-methylhistamine, rat cortical membranes
Settings: Ki=IC50/(1+([Ligand]/[Kd])
Metric: Ki (nM)
Field: numeric (nM). Do not append units.

Observe how each entry below is paired with its result.
>  <Compound>
CCCCC#CCCc1c[nH]cn1

>  <Metric>
Ki

>  <Test Value>
3

$$$$
>  <Compound>
C(=C/CCC1CCCCC1)/CCc1c[nH]cn1 [Example 24, 4-(6-Cyclohexyl-cis-3-enyl)imidazole]

>  <Metric>
Ki

>  <Test Value>
4.2

$$$$
>  <Compound>
CCC#CCCc1c[nH]cn1

>  <Metric>
Ki

>  <Test Value>
79

$$$$

The compound C(#Cc1c[nH]cn1)CCCc1ccccc1 , when measured on Histamine H3 receptor (Rattus norvegicus, UniProt Q9QYN8), yielded Ki of 591

---

Listed molecules paired with reported Ki
Target: Histamine H3 receptor (Rattus norvegicus, UniProt Q9QYN8)
Construct: from tissue; host or cells: rat cerebral cortex membranes
Assay: In vitro histamine H3 receptor binding analysis, [3H]-Nα-methylhistamine, rat cortical membranes
Details: Ki=IC50/(1+([Ligand]/[Kd])

So, C#Cc1c[nH]cn1 ? Its Ki was > 10000 nM

So, C[C@H](Cc1c[nH]cn1)NC(=O)[C@@H]1CC2CCCCC2N1 (stereo partly shown) ? Its Ki was 231 nM

---

Target: Histamine H3 receptor (Rattus norvegicus, UniProt Q9QYN8)
Construct: from tissue; host or cells: rat cerebral cortex membranes
Assay: In vitro histamine H3 receptor binding analysis, [3H]-Nα-methylhistamine, rat cortical membranes
Details: Ki=IC50/(1+([Ligand]/[Kd])
true if Ki is below 30 nM. false if not; exact matches included in false.

Check out these entries, answers already filled in.
>  <Compound>
CCCC#CCCc1c[nH]cn1

>  <Group>
true

$$$$
>  <Compound>
N[C@H](/C=C/CCc1c[nH]cn1)CC1CCCCC1

>  <Group>
true

$$$$
>  <Compound>
c1nc(CCNC[C@@H]2CC3CCCCC3N2)c[nH]1 (some centres unmarked)

>  <Group>
false

$$$$

Consider the record given below.
Does this compound meet the criterion Ki < 30 nM? N[C@@H](CCc1ccccc1)C(=O)NCCc1c[nH]cn1
true

---

Target: Histamine H3 receptor (Rattus norvegicus, UniProt Q9QYN8)
Construct: from tissue; host or cells: rat cerebral cortex membranes
Test: In vitro histamine H3 receptor binding analysis, [3H]-Nα-methylhistamine, rat cortical membranes
Conditions: Ki=IC50/(1+([Ligand]/[Kd])
Listed compounds paired with reported Ki
In your response, the unit should come after the numeric value.

>  <Smiles>
C(#CCCc1c[nH]cn1)CCCC1CCCCC1

>  <Ki>
3.4 nM

$$$$
>  <Smiles>
C#CCCc1c[nH]cn1

>  <Ki>
66 nM

$$$$
>  <Smiles>
N[C@@H](Cc1ccc(OCc2ccccc2)cc1)C(=O)NCCc1c[nH]cn1

>  <Ki>
199 nM

$$$$

Now take the following compound into account.
The compound CC(C)C[C@H](N)C(=O)NCCc1c[nH]cn1 , when measured on Histamine H3 receptor (Rattus norvegicus, UniProt Q9QYN8), yielded Ki of 122 nM
